Target: GABA-B receptor (Homo sapiens, UniProt O75899+Q9UBS5)
Test: Inhibition of human GABA-B receptor at 10 uM relative to control
value_kind: IC50

Look up IC50 for this molecule: `C/C=C/Cn1cc(-c2ccc(C(C)(C)O)cc2OC)c2cc[nH]c2c1=O`
4 µM

---

// values below are reported log10(IC50)
Target: Chromatin remodeling regulator CECR2 (Homo sapiens, UniProt Q9BXF3)
Sequence (Q9BXF3 whole entry): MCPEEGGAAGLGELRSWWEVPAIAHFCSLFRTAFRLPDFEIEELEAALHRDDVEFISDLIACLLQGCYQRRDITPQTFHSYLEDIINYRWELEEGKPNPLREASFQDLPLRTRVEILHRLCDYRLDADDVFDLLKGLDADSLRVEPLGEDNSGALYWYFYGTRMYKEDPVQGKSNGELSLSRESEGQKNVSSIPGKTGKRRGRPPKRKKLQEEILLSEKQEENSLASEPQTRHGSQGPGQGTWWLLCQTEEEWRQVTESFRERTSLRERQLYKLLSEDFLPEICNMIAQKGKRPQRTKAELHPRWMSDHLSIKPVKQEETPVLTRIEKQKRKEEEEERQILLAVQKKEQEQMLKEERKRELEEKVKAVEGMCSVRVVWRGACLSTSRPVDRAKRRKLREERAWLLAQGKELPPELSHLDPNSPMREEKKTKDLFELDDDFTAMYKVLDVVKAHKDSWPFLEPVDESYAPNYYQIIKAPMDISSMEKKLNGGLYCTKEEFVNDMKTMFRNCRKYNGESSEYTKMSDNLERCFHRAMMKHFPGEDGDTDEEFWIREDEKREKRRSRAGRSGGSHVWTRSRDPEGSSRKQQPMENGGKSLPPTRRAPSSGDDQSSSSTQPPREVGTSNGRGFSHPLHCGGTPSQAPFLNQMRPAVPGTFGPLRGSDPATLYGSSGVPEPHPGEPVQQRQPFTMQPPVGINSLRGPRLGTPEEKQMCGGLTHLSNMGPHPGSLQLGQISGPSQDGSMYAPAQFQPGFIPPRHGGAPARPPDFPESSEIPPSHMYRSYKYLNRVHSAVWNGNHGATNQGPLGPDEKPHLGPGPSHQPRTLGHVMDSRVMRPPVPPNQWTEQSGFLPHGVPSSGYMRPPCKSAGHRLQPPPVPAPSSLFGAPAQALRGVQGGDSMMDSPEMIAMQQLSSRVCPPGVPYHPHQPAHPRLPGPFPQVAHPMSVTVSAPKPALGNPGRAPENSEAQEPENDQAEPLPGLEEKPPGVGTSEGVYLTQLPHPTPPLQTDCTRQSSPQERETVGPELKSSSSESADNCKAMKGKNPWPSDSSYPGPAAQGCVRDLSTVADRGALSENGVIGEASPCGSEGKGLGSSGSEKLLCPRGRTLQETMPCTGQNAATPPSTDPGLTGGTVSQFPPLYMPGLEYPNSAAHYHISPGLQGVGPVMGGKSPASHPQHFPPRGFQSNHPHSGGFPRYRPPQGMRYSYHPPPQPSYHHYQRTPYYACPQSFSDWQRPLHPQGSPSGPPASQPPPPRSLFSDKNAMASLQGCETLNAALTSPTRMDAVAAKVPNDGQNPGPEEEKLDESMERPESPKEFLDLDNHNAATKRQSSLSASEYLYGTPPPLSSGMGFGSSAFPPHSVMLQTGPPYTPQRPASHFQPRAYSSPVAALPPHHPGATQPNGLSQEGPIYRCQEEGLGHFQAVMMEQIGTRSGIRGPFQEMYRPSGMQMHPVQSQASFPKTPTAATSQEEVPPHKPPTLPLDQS
Assay: Displacement of biotinylated small-molecule ligand from recombinant His-tagged CECR2 (unknown origin) measured after 10 mins by TR-FRET assay
Heads up, the numbers here are log10 of IC50 in nM units.

What does the data say about its log10(IC50)? Entry: `C/C=C/Cn1cc(-c2cc(OC)c(C(=O)N3CCOCC3)cc2OC)c2cc(C)[nH]c2c1=O`
3.38

Please give the result for `C/C=C/Cn1cc(-c2ccc(C(=O)N3CCOCC3)c(C)c2)c2cc(C)[nH]c2c1=O` too.
3.00

Check `C/C=C/Cn1cc(-c2ccc(C(C)(C)O)cc2)c2cc[nH]c2c1=O` too.
3.67

---

System: NCI-H1666
Assay: Cytotoxicity against human NCI-H1666 cells measured after 8 days
Type: functional, cell-based
Details: NCI-H1666, 192 h
value_kind: pIC50
Keep in mind that pIC50 stands for -log10 of concentration in molar terms.

>  <compound>
C/C=C/Cn1cc(-c2cc(OC)c(C(=O)N3CCOCC3)cc2OC)c2cc(C)[nH]c2c1=O

>  <tested_on>
NCI-H1666

>  <value_kind>
pIC50

>  <reported_value>
5.70

$$$$
>  <compound>
C/C=C/Cn1cc(-c2ccc(C(=O)N3CCOCC3)cc2)c2cc[nH]c2c1=O

>  <tested_on>
NCI-H1666

>  <value_kind>
pIC50

>  <reported_value>
4.71

$$$$

Next:
Query (molecule): `C/C=C/Cn1cc(-c2ccc(C(C)(C)O)cc2OC)c2cc[nH]c2c1=O` ; field requested: pIC50
4.70

---

Biological target: Bromodomain-containing protein 4 (Homo sapiens, UniProt O60885)
Experiment: Binding affinity to full length BRD4 short isoform (unknown origin) by BROMOscan assay
Below, each entry is listed alongside its reported pKd.
// pKd: -log10(molar conc.)

State the recorded pKd for this entry: `C/C=C/Cn1cc(-c2ccc(C(=O)N3CCOCC3)cc2)c2cc[nH]c2c1=O`
5.92

Repeat for the following molecule: `C/C=C/Cn1cc(-c2ccc(C(C)(C)O)cc2OC)c2cc[nH]c2c1=O`
6.24

---

Assay: Cytotoxicity against human HEC-88nu cells measured after 8 days
Assay type: functional, cell-based
Conditions: 192 h
Entries and their IC50
Please format your answer as a value with the unit trailing.

>  <compound>
C/C=C/Cn1cc(-c2ccc(C(C)(C)O)cc2OC)c2cc[nH]c2c1=O

>  <IC50>
20 µM

$$$$

Given the compound `C/C=C/Cn1cc(-c2ccc(C(=O)N3CCOCC3)cc2)c2cc[nH]c2c1=O` , what is its reported IC50?
20 µM

---

Biological target: Bromodomain-containing protein 4 (Homo sapiens)
Assay: Binding affinity to human partial length BRD4 bromodomain 1 long isoform (N44 to E168 residues) expressed in bacterial expression system by BROMOscan assay
// reported pKd per item
pKd here is simply -log10 of the concentration when that concentration is written in mol/L.

>  <compound>
C/C=C/Cn1cc(-c2ccc(C(=O)N3CCOCC3)cc2)c2cc[nH]c2c1=O

>  <value_kind>
pKd

>  <reported_value>
5.77

$$$$
>  <compound>
C/C=C/Cn1cc(-c2cc(OC)c(C(C)(C)O)cc2OC)c2cc(C)[nH]c2c1=O

>  <value_kind>
pKd

>  <reported_value>
5.03

$$$$

Reported pKd, compound `C/C=C/Cn1cc(-c2ccc(C(C)(C)O)cc2OC)c2cc[nH]c2c1=O` : ____
5.80

---

// Kd lookup, one value per entry
Target: CREB-binding protein (Homo sapiens, UniProt Q92793)
Sequence (Q92793 whole entry, the tested form may be a part): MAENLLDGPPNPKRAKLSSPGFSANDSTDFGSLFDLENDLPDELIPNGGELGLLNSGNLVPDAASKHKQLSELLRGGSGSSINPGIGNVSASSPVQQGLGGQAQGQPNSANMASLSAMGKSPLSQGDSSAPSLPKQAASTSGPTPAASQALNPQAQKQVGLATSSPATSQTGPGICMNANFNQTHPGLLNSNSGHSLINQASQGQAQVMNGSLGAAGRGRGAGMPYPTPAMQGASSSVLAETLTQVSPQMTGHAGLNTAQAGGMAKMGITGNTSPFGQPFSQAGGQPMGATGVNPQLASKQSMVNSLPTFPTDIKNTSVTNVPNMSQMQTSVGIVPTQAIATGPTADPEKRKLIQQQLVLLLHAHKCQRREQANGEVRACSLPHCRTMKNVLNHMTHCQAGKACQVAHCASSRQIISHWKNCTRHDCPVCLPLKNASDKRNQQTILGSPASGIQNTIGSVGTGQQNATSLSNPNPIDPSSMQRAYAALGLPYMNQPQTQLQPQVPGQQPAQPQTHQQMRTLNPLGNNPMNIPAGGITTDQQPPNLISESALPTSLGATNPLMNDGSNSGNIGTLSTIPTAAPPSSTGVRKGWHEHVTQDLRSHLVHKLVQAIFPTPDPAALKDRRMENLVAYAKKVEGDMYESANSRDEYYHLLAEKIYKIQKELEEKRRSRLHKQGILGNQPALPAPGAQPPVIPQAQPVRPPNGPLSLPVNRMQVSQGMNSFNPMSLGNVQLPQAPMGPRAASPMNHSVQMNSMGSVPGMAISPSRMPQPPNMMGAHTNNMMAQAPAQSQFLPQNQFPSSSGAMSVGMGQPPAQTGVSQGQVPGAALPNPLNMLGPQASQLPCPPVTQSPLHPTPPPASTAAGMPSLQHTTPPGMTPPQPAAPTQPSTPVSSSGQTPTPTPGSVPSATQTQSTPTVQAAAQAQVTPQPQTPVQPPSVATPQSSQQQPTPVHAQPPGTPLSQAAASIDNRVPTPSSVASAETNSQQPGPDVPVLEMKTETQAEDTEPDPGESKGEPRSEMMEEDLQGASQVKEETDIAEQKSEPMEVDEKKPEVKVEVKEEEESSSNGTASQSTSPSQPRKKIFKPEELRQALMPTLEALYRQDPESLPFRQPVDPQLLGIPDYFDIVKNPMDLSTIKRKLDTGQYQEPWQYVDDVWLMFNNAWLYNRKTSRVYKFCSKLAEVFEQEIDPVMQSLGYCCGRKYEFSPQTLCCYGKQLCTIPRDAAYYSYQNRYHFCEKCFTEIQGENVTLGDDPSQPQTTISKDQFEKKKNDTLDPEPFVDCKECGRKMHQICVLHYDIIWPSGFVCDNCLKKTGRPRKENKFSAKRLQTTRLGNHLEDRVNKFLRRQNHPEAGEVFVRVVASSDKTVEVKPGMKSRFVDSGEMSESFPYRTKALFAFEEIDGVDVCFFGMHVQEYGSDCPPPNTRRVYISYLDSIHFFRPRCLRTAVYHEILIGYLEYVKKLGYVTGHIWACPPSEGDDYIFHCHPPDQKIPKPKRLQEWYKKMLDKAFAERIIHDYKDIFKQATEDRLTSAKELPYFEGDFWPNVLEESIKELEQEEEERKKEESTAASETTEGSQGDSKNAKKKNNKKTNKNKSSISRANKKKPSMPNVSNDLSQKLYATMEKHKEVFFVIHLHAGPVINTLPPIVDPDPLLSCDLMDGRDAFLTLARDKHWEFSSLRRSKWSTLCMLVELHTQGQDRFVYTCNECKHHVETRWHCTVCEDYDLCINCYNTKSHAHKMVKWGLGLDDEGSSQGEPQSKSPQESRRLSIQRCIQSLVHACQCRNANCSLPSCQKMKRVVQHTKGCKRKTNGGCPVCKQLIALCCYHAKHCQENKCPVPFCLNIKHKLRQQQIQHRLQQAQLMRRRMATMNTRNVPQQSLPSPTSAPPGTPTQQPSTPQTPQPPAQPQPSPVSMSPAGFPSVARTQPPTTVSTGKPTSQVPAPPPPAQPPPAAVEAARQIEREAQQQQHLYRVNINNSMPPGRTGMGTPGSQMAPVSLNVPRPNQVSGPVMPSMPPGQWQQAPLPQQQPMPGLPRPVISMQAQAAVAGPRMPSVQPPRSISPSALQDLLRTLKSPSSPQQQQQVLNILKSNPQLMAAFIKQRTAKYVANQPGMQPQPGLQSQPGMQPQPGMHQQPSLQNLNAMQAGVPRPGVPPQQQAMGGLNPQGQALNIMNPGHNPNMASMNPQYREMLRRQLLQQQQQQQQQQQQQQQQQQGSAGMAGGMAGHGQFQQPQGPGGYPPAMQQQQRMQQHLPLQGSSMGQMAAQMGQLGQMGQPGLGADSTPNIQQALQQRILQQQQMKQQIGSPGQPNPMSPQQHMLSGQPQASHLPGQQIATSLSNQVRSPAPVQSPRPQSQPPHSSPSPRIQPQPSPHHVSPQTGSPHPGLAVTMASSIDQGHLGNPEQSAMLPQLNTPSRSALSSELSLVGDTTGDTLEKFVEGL
Assay: Binding affinity to human partial length CREBBP (R1081 to G1197 residues) expressed in bacterial expression system by BROMOscan assay

Consider the worked cases shown below.
>  <compound>
C/C=C/Cn1cc(-c2ccc(C(=O)N3CCOCC3)cc2)c2cc[nH]c2c1=O

>  <tested_on>
CREB-binding protein (Homo sapiens, UniProt Q92793)

>  <Kd>
> 10 µM

$$$$
>  <compound>
C/C=C/Cn1cc(-c2ccc(C(C)(C)O)cc2OC)c2cc[nH]c2c1=O

>  <tested_on>
CREB-binding protein (Homo sapiens, UniProt Q92793)

>  <Kd>
3.5 µM

$$$$
>  <compound>
C/C=C/Cn1cc(-c2cc(OC)c(C(=O)N3CCOCC3)cc2OC)c2cc(C)[nH]c2c1=O

>  <tested_on>
CREB-binding protein (Homo sapiens, UniProt Q92793)

>  <Kd>
> 10 µM

$$$$

// next entry
Test system CREB-binding protein (Homo sapiens, UniProt Q92793); read-out Kd; what value for `C/C=C/Cn1cc(-c2cc(OC)c(C(C)(C)O)cc2OC)c2cc(C)[nH]c2c1=O` ?
> 10 µM

---

System: SNG-M
Experiment: Cytotoxicity against human SNG-M cells measured after 8 days
Assay type: functional, cell-based
Conditions: 192 h
value_kind: IC50
Hi, when you answer, please include the unit after the number. Thanks!

>  <compound>
C/C=C/Cn1cc(-c2ccc(C(=O)N3CCOCC3)cc2)c2cc[nH]c2c1=O

>  <tested_on>
SNG-M

>  <IC50>
20 µM

$$$$

# input for lookup
Need IC50, item `C/C=C/Cn1cc(-c2ccc(C(C)(C)O)cc2OC)c2cc[nH]c2c1=O`
20 µM

---

Listed compounds paired with reported IC50
System: SU-DHL-6
Assay: Cytotoxicity against human SU-DHL-6 cells measured after 8 days
Format: functional, cell-based
Details: SU-DHL-6, 192 h
Report the figure in µM without appending any unit label.

>  <compound>
C/C=C/Cn1cc(-c2ccc(C(C)(C)O)cc2OC)c2cc[nH]c2c1=O

>  <tested_on>
SU-DHL-6

>  <value_kind>
IC50

>  <reported_value>
11.1

$$$$

Now for another entry.
What does the record list as IC50 for `C/C=C/Cn1cc(-c2ccc(C(=O)N3CCOCC3)cc2)c2cc[nH]c2c1=O` ?
12.1

---

Parameter pIC50: see the listing below.
Test: Cytotoxicity against human KE-97 cells measured after 8 days
Assay type: functional, cell-based
Conditions: KE-97, 192 h
In plain terms, pIC50 is the concentration in mol/L turned into minus its base-10 logarithm.

>  <compound>
C/C=C/Cn1cc(-c2ccc(C(C)(C)O)cc2OC)c2cc[nH]c2c1=O

>  <pIC50>
4.70

$$$$
>  <compound>
C/C=C/Cn1cc(-c2ccc(C(=O)N3CCOCC3)cc2)c2cc[nH]c2c1=O

>  <pIC50>
4.70

$$$$

So what does the record say about pIC50 for `C/C=C/Cn1cc(-c2cc(OC)c(C(=O)N3CCOCC3)cc2OC)c2cc(C)[nH]c2c1=O` ?
5.70

---

We begin with a simple list: items and their reported pIC50.
System: HCC515
Assay: Cytotoxicity against human HCC515 cells measured after 8 days
Type: functional, cell-based
Details: HCC515, 192 h
Just the number, please; pIC50 means minus log10 of the concentration in mol/L.

>  <compound>
C/C=C/Cn1cc(-c2cc(OC)c(C(=O)N3CCOCC3)cc2OC)c2cc(C)[nH]c2c1=O

>  <tested_on>
HCC515

>  <pIC50>
5.70

$$$$
>  <compound>
C/C=C/Cn1cc(-c2ccc(C(C)(C)O)cc2OC)c2cc[nH]c2c1=O

>  <tested_on>
HCC515

>  <pIC50>
4.70

$$$$

Need pIC50, item `C/C=C/Cn1cc(-c2ccc(C(=O)N3CCOCC3)cc2)c2cc[nH]c2c1=O`
4.70

---

# IC50 per entry
Target: Bromodomain-containing protein 4 (Homo sapiens, UniProt O60885)
Test: Displacement of biotinylated small-molecule ligand from recombinant His-tagged BRD4 bromodomain 1 (unknown origin) measured after 10 mins by TR-FRET assay
Hi! Could you send only the number? It should be in µM, unit omitted.

Example entries begin here.
>  <compound>
C/C=C/Cn1cc(-c2ccc(C(=O)N3CCOCC3)cc2)c2cc(C)[nH]c2c1=O

>  <tested_on>
Bromodomain-containing protein 4 (Homo sapiens, UniProt O60885)

>  <value_kind>
IC50

>  <reported_value>
1.6

$$$$
>  <compound>
C/C=C/Cn1cc(-c2ccc(C(=O)N3CCOCC3)c(OC)c2)c2cc(C)[nH]c2c1=O

>  <tested_on>
Bromodomain-containing protein 4 (Homo sapiens, UniProt O60885)

>  <value_kind>
IC50

>  <reported_value>
3.3

$$$$
>  <compound>
C/C=C/Cn1cc(-c2ccc(C(=O)N3CCOCC3)cc2)c2cc[nH]c2c1=O

>  <tested_on>
Bromodomain-containing protein 4 (Homo sapiens, UniProt O60885)

>  <value_kind>
IC50

>  <reported_value>
3.4

$$$$
>  <compound>
C/C=C/Cn1cc(-c2ccc(C(=O)N3CCOCC3)c(C#N)c2)c2cc(C)[nH]c2c1=O

>  <tested_on>
Bromodomain-containing protein 4 (Homo sapiens, UniProt O60885)

>  <value_kind>
IC50

>  <reported_value>
4.2

$$$$

What reported IC50 corresponds to `C/C=C/Cn1cc(-c2ccc(C(=O)N3CCOCC3)c(Cl)c2)c2cc(C)[nH]c2c1=O` on Bromodomain-containing protein 4 (Homo sapiens, UniProt O60885)?
3.5

What do we get for `C/C=C/Cn1cc(-c2ccc(C(C)(C)O)cc2)c2cc[nH]c2c1=O` ?
3.3

What would you report for `C/C=C/Cn1cc(-c2ccc(C(=O)N3CCOCC3)c(C)c2)c2cc(C)[nH]c2c1=O` ?
6

Same again, this time with `C/C=C/Cn1cc(-c2ccc(C(C)(C)O)cc2OC)c2cc[nH]c2c1=O`
5.1
